Test system: SNB-75 CNS
Assay: NCI-60 one-dose screen, 48 h
Conditions: 10 µM unless noted
Compounds without any hit were thinned out: in the full panel of roughly 83,000, 20% have a hit. Active and inactive are the calls of the source. The calls were made as follows: active = growth percent below 10; inactive = the rest.
// allowed return values: active, inactive

Worked set:
# Smiles structure, Experimental system, Qualitative label
measured = [
    ("O=C1/C=C/[C@@H](O)[C@@H]2C[C@@H](O)C[C@H]2/C=C/CCC[C@H](CCO)O1", "SNB-75 CNS", "inactive"),
    ("NC(=O)c1c(NC(=O)c2cccs2)sc2c1CCC(=O)C2", "SNB-75 CNS", "inactive"),
]

Write down the call the test reported for this compound. Item: "CN1CCN(Cc2ccc(NC(=O)c3cncc(C#Cc4cnc(N)c5ncccc45)c3)cc2C(F)(F)F)CC1"
active

Record request — test call for "CC1=C(C(=O)Nc2nc(-c3ccc(Cl)cc3)cs2)[C@H](c2ccc(O)cc2)NC(=O)N1"
inactive

So what was the verdict on "Cc1ccc(-c2nc3nc(-c4ccccc4)nc(N4CCCN(S(C)(=O)=O)CC4)c3o2)cc1" in this test?
inactive

Could you check what this test reported for "O=C(O)[C@@H](Cc1ccc2ccccc2c1)NC(=O)n1c2ccccc2c2ccccc21" ?
inactive

Look up the recorded call for "O=C(NNC(=O)c1nc2cc(F)ccc2n2cccc12)c1cnccn1" in this test.
inactive

State the result this test recorded for "O=C1/C(=C\c2cccc3nccnc23)SC(=S)N1CCc1ccc(O)cc1" .
inactive

Outcome? "O=c1nc(-c2ccccc2)c2cc(-c3ccc(C(F)(F)F)nc3)ccc2[nH]1"
inactive
